Reference source for all entries: ChEMBL document CHEMBL1148862

RUN DESCRIPTION: Drug level in Swiss SPF (CD1) mouse heart at 20 mg/kg, po after 8 hrs
Format: ADME, organism-based
Parameters: dose 20 mg/kg, route oral
DETAILS: read-out: Drug uptake
QUANTITY NAME: concentration at 8 h (ng/mL)
Numbers only, in ng/mL.

// lookup concentration at 8 h for "O=C(NCCCN1CCCC1=O)c1cnccc1Nc1nc(-c2cc(Br)ccc2F)nc2nccnc12" 29.1

###

RUN DESCRIPTION: Drug level in Swiss SPF (CD1) mouse liver at 20 mg/kg, po after 2 hrs
Assay type: ADME, organism-based
Set-up: dose 20 mg/kg, route oral
DETAILS: read-out: Drug uptake
QUANTITY NAME: concentration at 2 h (ng/mL)
Answers are plain numbers, in ng/mL.

// lookup concentration at 2 h for "O=C(NCCCN1CCCC1=O)c1cnccc1Nc1nc(-c2cc(Br)ccc2F)nc2nccnc12" 611

###

RUN DESCRIPTION: Drug level in Swiss SPF (CD1) mouse heart at 20 mg/kg, po after 24 hrs
Format: ADME, organism-based
Set-up: dose 20 mg/kg, route oral
DETAILS: read-out: Drug uptake
QUANTITY NAME: concentration at 24 h (ng/mL)
Give bare numbers, in ng/mL.

// lookup concentration at 24 h for "O=C(NCCCN1CCCC1=O)c1cnccc1Nc1nc(-c2cc(Br)ccc2F)nc2nccnc12" 5

###

RUN DESCRIPTION: Drug level in Swiss SPF (CD1) mouse heart at 20 mg/kg, po after 4 hrs
Assay type: ADME, organism-based
Parameters: dose 20 mg/kg, route oral
DETAILS: read-out: Drug uptake
QUANTITY NAME: concentration at 4 h (ng/mL)
Numbers only, in ng/mL.

// lookup concentration at 4 h for "O=C(NCCCN1CCCC1=O)c1cnccc1Nc1nc(-c2cc(Br)ccc2F)nc2nccnc12" 83.6

###

RUN DESCRIPTION: Cmax in Swiss SPF (CD1) mouse heart at 20 mg/kg, po
Format: ADME, organism-based
Set-up: dose 20 mg/kg, route oral
QUANTITY NAME: Cmax (ng/mL)
Numbers only, in ng/mL.

// lookup Cmax for "O=C(NCCCN1CCCC1=O)c1cnccc1Nc1nc(-c2cc(Br)ccc2F)nc2nccnc12" 678

###

RUN DESCRIPTION: Cytotoxicity against MT4 cells by luciferase assay
Format: cell-based
DETAILS: human
Would you mind telling me the reported CC50 of each entry?

# example entries with known answers
CHEMICAL SMILES	CC50
FC(F)(F)c1cccc(-c2nc(Nc3ccncc3)c3nccnc3n2)c1	> 25 µM
CCCCN(c1ccncc1)c1nc(-c2cc(Br)ccc2F)nc2nccnc12	> 32 µM
Cc1cnccc1Nc1nc(-c2cc(Cl)ccc2F)nc2nccnc12	> 32 µM

Please go through the list and note CC50 for each compound.
1. Oc1nc(-c2cc(Cl)ccc2F)nc2nccnc12
2. Cc1ccccc1Nc1nc(-c2cc(Br)ccc2F)nc2nccnc12

["> 25 µM", "> 32 µM"]

###

Would you mind telling me the reported CC50 of each entry?
RUN DESCRIPTION: Cytotoxicity against MT4 cells by luciferase assay
Type: cell-based
DETAILS: human

CHEMICAL SMILES	CC50
Clc1cccc(-c2nc(Nc3ccncc3)c3nccnc3n2)c1	> 32 µM
O=C(NCCCN1CCCC1=O)c1cnccc1Nc1nc(-c2cc(Br)ccc2F)nc2nccnc12	> 32 µM
Fc1ccccc1-c1nc(Nc2ccncc2)c2nccnc2n1	> 25 µM
COc1cnc(-c2cc(Cl)ccc2F)nc1Nc1ccncc1C(=O)NCCNCCO	> 32 µM
COc1cnc(-c2cc(Cl)ccc2F)nc1Nc1ccncc1C(=O)NC[C@H]1CCCO1	> 32 µM

// below: CC50 requested for another compound
// lookup CC50 for "COc1cnc(-c2cc(Cl)ccc2F)nc1Nc1ccncc1C(=O)NCC(F)(F)F" > 32 µM
